Recorded values, source patent US20100260765A1.

target: T1, soluble KDR extracellular domain (ECD) (Calbiochem) (human, UniProt P35968 20-764); assay: Limited Antigen ELISA, KDR coat 50 ng/mL, supernatant 1:25
T1 construct: extracellular domain; Bought protein; also called KDR-ECD; VEGF Receptor 2 D1-7, Cat. #676490
T1 sequence (P35968 20-764): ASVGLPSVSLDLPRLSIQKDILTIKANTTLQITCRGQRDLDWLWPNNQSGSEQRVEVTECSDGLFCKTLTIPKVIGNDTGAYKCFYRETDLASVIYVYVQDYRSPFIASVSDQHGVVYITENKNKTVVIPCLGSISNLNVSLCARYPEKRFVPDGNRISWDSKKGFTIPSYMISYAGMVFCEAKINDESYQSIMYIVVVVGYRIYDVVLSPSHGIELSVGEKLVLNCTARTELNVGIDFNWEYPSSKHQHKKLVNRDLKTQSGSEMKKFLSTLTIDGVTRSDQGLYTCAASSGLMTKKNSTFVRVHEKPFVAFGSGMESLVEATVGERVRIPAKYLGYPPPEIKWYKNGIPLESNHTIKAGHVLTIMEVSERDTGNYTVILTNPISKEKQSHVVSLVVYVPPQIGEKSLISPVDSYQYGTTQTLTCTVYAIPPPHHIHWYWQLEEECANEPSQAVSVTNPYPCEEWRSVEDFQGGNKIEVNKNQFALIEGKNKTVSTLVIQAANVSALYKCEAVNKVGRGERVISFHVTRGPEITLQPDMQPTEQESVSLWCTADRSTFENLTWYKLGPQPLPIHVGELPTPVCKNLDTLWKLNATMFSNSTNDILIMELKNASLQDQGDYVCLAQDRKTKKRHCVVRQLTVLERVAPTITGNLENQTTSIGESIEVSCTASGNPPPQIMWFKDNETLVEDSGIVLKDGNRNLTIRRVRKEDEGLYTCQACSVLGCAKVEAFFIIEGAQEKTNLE
Listed binders paired with reported ELISA reading
The response must contain the number and no unit.

- binder: "33E1 (antibody, V domains shown, Fully human mAb from XenoMouse hybridoma, tested as hybridoma supernatant) VH: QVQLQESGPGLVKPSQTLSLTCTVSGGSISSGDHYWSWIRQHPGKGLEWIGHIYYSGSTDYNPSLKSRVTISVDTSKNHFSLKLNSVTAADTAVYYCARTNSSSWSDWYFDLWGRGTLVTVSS VL: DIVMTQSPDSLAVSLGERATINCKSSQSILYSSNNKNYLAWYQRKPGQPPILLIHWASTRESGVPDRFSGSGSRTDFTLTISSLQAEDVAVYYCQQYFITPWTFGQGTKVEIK"
  ELISA reading: 0.85
- binder: "24B3 (antibody, V domains shown, Fully human mAb from XenoMouse hybridoma, tested as hybridoma supernatant) VH: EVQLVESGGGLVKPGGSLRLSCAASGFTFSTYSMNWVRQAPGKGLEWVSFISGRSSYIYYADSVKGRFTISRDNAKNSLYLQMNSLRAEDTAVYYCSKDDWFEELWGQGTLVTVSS VL: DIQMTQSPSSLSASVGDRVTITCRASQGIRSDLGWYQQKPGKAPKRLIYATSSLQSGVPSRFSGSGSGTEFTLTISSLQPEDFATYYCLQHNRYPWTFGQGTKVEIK"
  ELISA reading: 0.38
- binder: "30F6 (antibody, V domains shown, Fully human mAb from XenoMouse hybridoma, tested as hybridoma supernatant) VH: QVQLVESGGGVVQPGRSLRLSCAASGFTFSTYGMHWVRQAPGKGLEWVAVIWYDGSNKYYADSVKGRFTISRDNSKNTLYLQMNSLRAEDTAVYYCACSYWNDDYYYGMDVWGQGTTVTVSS VL: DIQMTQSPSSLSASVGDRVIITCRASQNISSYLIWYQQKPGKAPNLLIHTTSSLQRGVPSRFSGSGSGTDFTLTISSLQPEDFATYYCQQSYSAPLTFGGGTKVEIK"
  ELISA reading: 0.52
- binder: "33D5 (antibody, V domains shown, Fully human mAb from XenoMouse hybridoma, tested as hybridoma supernatant) VH: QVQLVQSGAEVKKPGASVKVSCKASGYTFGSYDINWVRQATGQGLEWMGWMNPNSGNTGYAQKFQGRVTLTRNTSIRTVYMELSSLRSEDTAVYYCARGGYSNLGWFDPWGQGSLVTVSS VL: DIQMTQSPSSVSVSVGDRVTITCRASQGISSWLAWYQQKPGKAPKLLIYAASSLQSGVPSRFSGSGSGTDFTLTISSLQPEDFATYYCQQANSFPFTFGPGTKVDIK"
  ELISA reading: 3.81

Briefly, ELISA reading measured for 21A1 (antibody, V domains shown, Fully human mAb from XenoMouse hybridoma, tested as hybridoma supernatant) VH: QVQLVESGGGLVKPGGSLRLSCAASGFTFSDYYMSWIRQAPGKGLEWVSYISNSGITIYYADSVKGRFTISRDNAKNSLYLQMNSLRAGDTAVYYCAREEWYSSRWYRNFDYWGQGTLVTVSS VL: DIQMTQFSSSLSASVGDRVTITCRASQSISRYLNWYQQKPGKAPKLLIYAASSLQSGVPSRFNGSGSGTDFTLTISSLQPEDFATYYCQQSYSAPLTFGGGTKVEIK : 2.65
